# EXPERIMENTAL PARAMETERS: TIDE 2X 0.78 g/l, 6 gpg, pH 8.2, 30 min at 20°C, A405; variant vs wild-type thermolysin at same protein concentration
Recorded PI (performance index), stain removal for the following molecules
MEASURED ENDPOINT: PI (performance index), stain removal

molecule="Y151D: single-substitution thermolysin variant (SEQ ID NO:3 numbering) (protein, listed as Geobacillus caldoproteolyticus) ITGTSTVGVGRGVLGDQKNINTTYSTYYYLQDNTRGNGIFTYDAKYRTTLPGSLWADADNQFFASYDAPAVDAHYYAGVTYDYYKNVHNRLSYDGNNAAIRSSVHYSQGYNNAFWNGSQMVYGDGDGQTFIPLSGGIDVVAHELTHAVTDDTAGLIYQNESGAINEAISDIFGTLVEFYANKNPDWEIGEDVYTPGISGDSLRSMSDPAKYGDPDHYSKRYTGTQDNGGVHINSGIINKAAYLISQGGTHYGVSVVGIGRDKLGKIFYRALTQYLTPTSNFSQLRAAAVQSATDLYGSTSQEVASVKQAFDAVGVK" measured_endpoint="PI (performance index), stain removal" reported_measurement=1.08
molecule="Y151H: single-substitution thermolysin variant (SEQ ID NO:3 numbering) (protein, listed as Geobacillus caldoproteolyticus) ITGTSTVGVGRGVLGDQKNINTTYSTYYYLQDNTRGNGIFTYDAKYRTTLPGSLWADADNQFFASYDAPAVDAHYYAGVTYDYYKNVHNRLSYDGNNAAIRSSVHYSQGYNNAFWNGSQMVYGDGDGQTFIPLSGGIDVVAHELTHAVTDHTAGLIYQNESGAINEAISDIFGTLVEFYANKNPDWEIGEDVYTPGISGDSLRSMSDPAKYGDPDHYSKRYTGTQDNGGVHINSGIINKAAYLISQGGTHYGVSVVGIGRDKLGKIFYRALTQYLTPTSNFSQLRAAAVQSATDLYGSTSQEVASVKQAFDAVGVK" measured_endpoint="PI (performance index), stain removal" reported_measurement=1.17
molecule="Y151M: single-substitution thermolysin variant (SEQ ID NO:3 numbering) (protein, listed as Geobacillus caldoproteolyticus) ITGTSTVGVGRGVLGDQKNINTTYSTYYYLQDNTRGNGIFTYDAKYRTTLPGSLWADADNQFFASYDAPAVDAHYYAGVTYDYYKNVHNRLSYDGNNAAIRSSVHYSQGYNNAFWNGSQMVYGDGDGQTFIPLSGGIDVVAHELTHAVTDMTAGLIYQNESGAINEAISDIFGTLVEFYANKNPDWEIGEDVYTPGISGDSLRSMSDPAKYGDPDHYSKRYTGTQDNGGVHINSGIINKAAYLISQGGTHYGVSVVGIGRDKLGKIFYRALTQYLTPTSNFSQLRAAAVQSATDLYGSTSQEVASVKQAFDAVGVK" measured_endpoint="PI (performance index), stain removal" reported_measurement=1.06
molecule="Y151T: single-substitution thermolysin variant (SEQ ID NO:3 numbering) (protein, listed as Geobacillus caldoproteolyticus) ITGTSTVGVGRGVLGDQKNINTTYSTYYYLQDNTRGNGIFTYDAKYRTTLPGSLWADADNQFFASYDAPAVDAHYYAGVTYDYYKNVHNRLSYDGNNAAIRSSVHYSQGYNNAFWNGSQMVYGDGDGQTFIPLSGGIDVVAHELTHAVTDTTAGLIYQNESGAINEAISDIFGTLVEFYANKNPDWEIGEDVYTPGISGDSLRSMSDPAKYGDPDHYSKRYTGTQDNGGVHINSGIINKAAYLISQGGTHYGVSVVGIGRDKLGKIFYRALTQYLTPTSNFSQLRAAAVQSATDLYGSTSQEVASVKQAFDAVGVK" measured_endpoint="PI (performance index), stain removal" reported_measurement=1.13
molecule="Y151R: single-substitution thermolysin variant (SEQ ID NO:3 numbering) (protein, listed as Geobacillus caldoproteolyticus) ITGTSTVGVGRGVLGDQKNINTTYSTYYYLQDNTRGNGIFTYDAKYRTTLPGSLWADADNQFFASYDAPAVDAHYYAGVTYDYYKNVHNRLSYDGNNAAIRSSVHYSQGYNNAFWNGSQMVYGDGDGQTFIPLSGGIDVVAHELTHAVTDRTAGLIYQNESGAINEAISDIFGTLVEFYANKNPDWEIGEDVYTPGISGDSLRSMSDPAKYGDPDHYSKRYTGTQDNGGVHINSGIINKAAYLISQGGTHYGVSVVGIGRDKLGKIFYRALTQYLTPTSNFSQLRAAAVQSATDLYGSTSQEVASVKQAFDAVGVK" measured_endpoint="PI (performance index), stain removal" reported_measurement=1.75
